Each recorded value in this set is attributed to patent US7074789B2.

Target: c-Met (Homo sapiens, UniProt P08581)
Construct: Kinases are expressed as either kinase domains or full length constructs; made in house
Sequence (P08581 25-1390): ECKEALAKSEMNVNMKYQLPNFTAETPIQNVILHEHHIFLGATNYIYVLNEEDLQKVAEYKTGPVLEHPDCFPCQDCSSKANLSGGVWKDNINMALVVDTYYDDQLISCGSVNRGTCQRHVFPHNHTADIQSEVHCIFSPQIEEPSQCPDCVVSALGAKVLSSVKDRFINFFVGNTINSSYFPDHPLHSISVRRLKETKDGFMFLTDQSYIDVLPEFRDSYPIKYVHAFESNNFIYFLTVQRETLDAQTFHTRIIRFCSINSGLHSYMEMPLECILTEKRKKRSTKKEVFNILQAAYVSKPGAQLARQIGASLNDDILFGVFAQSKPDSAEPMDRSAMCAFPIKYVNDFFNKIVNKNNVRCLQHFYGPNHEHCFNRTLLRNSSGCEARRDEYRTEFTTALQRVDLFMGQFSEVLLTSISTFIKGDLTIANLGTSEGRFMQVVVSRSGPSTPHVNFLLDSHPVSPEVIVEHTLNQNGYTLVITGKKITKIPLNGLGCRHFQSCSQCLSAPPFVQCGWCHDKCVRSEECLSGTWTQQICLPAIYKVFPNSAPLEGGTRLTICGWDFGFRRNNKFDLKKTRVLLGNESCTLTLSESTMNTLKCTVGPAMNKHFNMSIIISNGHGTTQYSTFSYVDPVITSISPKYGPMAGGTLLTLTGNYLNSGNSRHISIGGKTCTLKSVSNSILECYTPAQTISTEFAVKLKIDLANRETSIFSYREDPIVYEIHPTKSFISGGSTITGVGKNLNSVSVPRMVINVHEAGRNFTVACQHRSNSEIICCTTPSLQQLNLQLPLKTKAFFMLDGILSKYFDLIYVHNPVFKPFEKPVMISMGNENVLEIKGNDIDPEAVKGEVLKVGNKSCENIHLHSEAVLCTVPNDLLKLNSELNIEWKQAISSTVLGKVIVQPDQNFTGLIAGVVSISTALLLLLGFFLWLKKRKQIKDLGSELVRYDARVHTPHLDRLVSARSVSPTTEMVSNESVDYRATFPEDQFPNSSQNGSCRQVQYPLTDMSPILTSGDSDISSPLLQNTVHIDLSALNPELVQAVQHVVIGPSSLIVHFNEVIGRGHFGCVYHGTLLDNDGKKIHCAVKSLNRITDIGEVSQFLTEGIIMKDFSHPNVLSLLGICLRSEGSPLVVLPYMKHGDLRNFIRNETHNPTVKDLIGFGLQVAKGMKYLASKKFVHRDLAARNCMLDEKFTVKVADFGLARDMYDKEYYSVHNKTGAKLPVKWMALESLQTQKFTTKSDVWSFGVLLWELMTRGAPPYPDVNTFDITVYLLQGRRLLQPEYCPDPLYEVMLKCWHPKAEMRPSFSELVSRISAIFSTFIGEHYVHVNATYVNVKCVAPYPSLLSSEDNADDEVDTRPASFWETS
Experiment: Kinase inhibition assay (33P transfer), c-Met
Format: biochemical
Settings: Table 2, kinase inhibition class; read-out: Met-1
Quantity name: IC50

What value of IC50 has been reported for the following molecule? C=CCNc1cc(-c2ncnc(Nc3cc(OC)c(OC)c(OC)c3)n2)ccn1 [Compound 412]
> 11.4 µM

What value of IC50 has been reported for the following molecule? COc1cc(Nc2ncnc(N3CCC(O)CC3)n2)cc(OC)c1OC [Compound 208]
9.68 to 12.5 µM

What value of IC50 has been reported for the following molecule? N#CCc1ccc(Nc2ncnc(Nc3ccc4c(cnn4Cc4ccccc4)c3)n2)cc1 [Compound 731]
0.925 to 5.55 µM

What value of IC50 has been reported for the following molecule? COc1ccc(CNc2ncnc(Nc3cc(OC)c(OC)c(OC)c3)n2)cc1 [Compound 80]
> 11.3 µM

What value of IC50 has been reported for the following molecule? COc1cc(Nc2ncnc(Nc3cnc4ccccc4c3)n2)cc(OC)c1OC [Compound 99]
8.65 to 11.1 µM

What value of IC50 has been reported for the following molecule? COc1ccc(Cl)cc1Nc1ncnc(Nc2cc(OC)c(OC)c(OC)c2)n1 [Compound 627]
8.38 to 10.8 µM

What value of IC50 has been reported for the following molecule? CCN(c1ccc(C)cc1)c1ncnc(Nc2cc(OC)c(OC)c(OC)c2)n1 [Compound 538]
< 1.01 µM

What value of IC50 has been reported for the following molecule? COc1cccc(Nc2ncnc(-n3c(N)nc4ccccc43)n2)c1 [Compound 654]
7.2 to 10.5 µM

What value of IC50 has been reported for the following molecule? COc1cc(Nc2ncnc(Nc3ccc(N4CCOCC4)cc3)n2)cc(OC)c1OC [Compound 101]
> 10.3 µM
